System: CAL-120
Assay: normalised response (% of control), CellTiter-Glo; higher = more viable cells (100 = DMSO, 0 = benzethonium chloride kill control)
Settings: incubation time: 72 h
parameter: normalised response (%)
Expressed in %, but write only the number.

Lookup: For CAL-120, provide normalised response of COc1cc(O)c2c(c1)/C=C/C[C@H](O)[C@H](O)C(=O)/C=C\C[C@H](C)OC2=O [(5Z)-7-Oxozeaenol] (100 nM) please.
Found: 101

Lookup: // map S=P(N1CC1)(N1CC1)N1CC1 [Thio-TEPA] (500 nM) to recorded normalised response (system: CAL-120)
Found: 96.1

Lookup: So what normalised response did CCOC(=O)CCNc1cc(N2CCc3ccccc3CC2)nc(-c2ccccn2)n1 [GSK-J4] (1000 nM) get with CAL-120?
Found: 105

Lookup: Item N#Cc1ccc(COC[C@H]2O[C@@H](n3c(NCc4ccc(Cl)c(Cl)c4)nc4c(N)ncnc43)[C@H](O)[C@@H]2O)cc1 (100 nM) with CAL-120 - normalised response?
Found: 108

Lookup: For the record CN(C)c1nc(N(C)C)nc(N(C)C)n1 [Altretamine] (100 nM) , what value of normalised response is listed for CAL-120?
Found: 103

Lookup: Record lookup: for CAL-120, what normalised response belongs to COC(=O)c1ccc2c(c1)NC(=O)/C2=C(\Nc1ccc(N(C)C(=O)CN2CCN(C)CC2)cc1)c1ccccc1 [Nintedanib] (100 nM) ?
Found: 98.7

Lookup: Given the entry C=C1C[C@@H]2[C@H](CC[C@]3(C)C(=O)CC[C@@H]23)[C@@]2(C)C=CC(=O)C=C12 [Exemestane] (100 nM) , what normalised response was observed with CAL-120?
Found: 106

---

Test system: MDA-MB-453
Assay: drug sensitivity score (DSS), CellTiter-Blue viability (DSS (AUC-based score)); higher = stronger viability inhibition; extreme values may be limits of the assay
Details: incubation time: 72 h
Answer each item with its documented drug sensitivity score.
Answer using only a numeral; do not append any unit.

Lookup: Value lookup for drug sensitivity score; key = NC(=O)c1ccc(I)c([N+](=O)[O-])c1 [Iniparib]
Found: 0

Lookup: drug sensitivity score lookup needed for COc1cc2/c(=N/c3ccc(Br)cc3F)nc[nH]c2cc1OCC1CCN(C)CC1 [Vandetanib] , thanks.
Found: 3.82

Lookup: Sample O=P1(N(CCCl)CCCl)NCCCO1 (stereo not given) [Cyclophosphamide] — what was its drug sensitivity score?
Found: 0

Lookup: Reported drug sensitivity score, compound Cc1ccc(NC(=O)c2ccc(CN3CCN(C)CC3)cc2)cc1Nc1nc(-c2cccnc2)cs1 [Masitinib] : ____
Found: 4.09

Lookup: drug sensitivity score lookup needed for O=C(Nc1ccncc1)C(=O)c1cn(Cc2ccc(Cl)cc2)c2ccccc12 [Indibulin] , thanks.
Found: 18

---

System: CAL-148
Assay: normalised viability (% of control), CellTiter-Blue; higher = more viable cells (about 100 = DMSO control)
Conditions: incubation time: 72 h
parameter: normalised viability (%)
Form entry: value (%) — number only.

Lookup: Suppose we examine the molecule Cc1ccc(NC(=O)c2ccc(CN3CCN(C)CC3)cc2)cc1Nc1nc(-c2cccnc2)cs1 [Masitinib] (1000 nM) ; what normalised viability value has been reported?
Found: 87.1

Lookup: GET /values?readout=normalised viability&item= Cc1cc(Nc2cc(CN3CCOCC3)c3nc(C)c(Cc4ccc(Cl)cc4F)n3n2)n[nH]1 (1000 nM)
Found: 94.6

Lookup: Quick one: normalised viability for O=C(Nc1cccnc1)N1CCC(Cc2cccc(Oc3ccc(C(F)(F)F)cn3)c2)CC1 [PF-3845] (1000 nM) ?
Found: 101

Lookup: Fill blank: measured normalised viability of the molecule S=P(N1CC1)(N1CC1)N1CC1 [Thio-TEPA] (10000 nM) is ____.
Found: 113

Lookup: Bench note: what normalised viability did Nc1cc(C(F)(F)F)c(-c2cc(N3CCOCC3)nc(N3CCOCC3)n2)cn1 [BKM-120] (1000 nM) show?
Found: 83.7

Taken from the supplement of paper PMC4862054.
